Target: T1, human CD98, endogenously expressed on Molt-4 human acute lymphoblastic leukemia cells (human)
T1 chain: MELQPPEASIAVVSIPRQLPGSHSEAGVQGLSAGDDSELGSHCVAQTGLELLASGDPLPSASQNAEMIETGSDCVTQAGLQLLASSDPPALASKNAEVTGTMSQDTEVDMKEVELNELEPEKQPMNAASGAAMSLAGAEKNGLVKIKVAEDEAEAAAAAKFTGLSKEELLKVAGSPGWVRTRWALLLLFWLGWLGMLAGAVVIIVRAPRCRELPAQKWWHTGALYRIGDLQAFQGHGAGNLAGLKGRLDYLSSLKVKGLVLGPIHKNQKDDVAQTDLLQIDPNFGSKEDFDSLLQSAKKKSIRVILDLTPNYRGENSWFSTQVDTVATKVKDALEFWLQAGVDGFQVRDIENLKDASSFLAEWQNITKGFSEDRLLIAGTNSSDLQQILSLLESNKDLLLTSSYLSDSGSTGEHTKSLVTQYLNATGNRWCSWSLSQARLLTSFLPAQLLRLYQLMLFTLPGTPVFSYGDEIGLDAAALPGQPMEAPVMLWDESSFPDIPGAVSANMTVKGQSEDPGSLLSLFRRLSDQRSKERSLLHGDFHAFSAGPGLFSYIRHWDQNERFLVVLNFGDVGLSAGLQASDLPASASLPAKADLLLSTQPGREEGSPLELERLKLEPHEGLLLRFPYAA
Test: cell-based or functional assay
Listed here: items and their measured Molt4 IC50.
Numeric only. Scale: nM

Consider the following illustrative entries.
[[record]]
binder = "CD98 (CL-huAb110)- LB (antibody, human IgG1, kappa, L234A L235A, V domains shown, synthon LB on reduced interchain cysteines (sites not given)) VH: EVQLVQSGAEVKKPGASVKVSCKASGFTFSDYTMAWVRQAPGQGLEWVATIIYDARGTYYRDAVKGRFTITRDNSTSTLYLELSSLRSEDTAVYYCARQSDDTYYYWGYFDYWGQGTMVTVSS VL: DIVMTQTPLSLPVTPGEPASINCKSSQSLLFSGNQKNYLAWYLQKPGQSPQLLIYWASTRQSGVPDRFSGSGSGTDFTLKISRVEAEDVGIYYCQQYYSSPYTFGQGTKLEIKR"
readout = "Molt4 IC50"
value_reported = 0.208

[[record]]
binder = "CD98 (CL-huAb108)-CZ (antibody, human IgG1, kappa, L234A L235A, V domains shown, synthon CZ on reduced interchain cysteines (sites not given)) VH: EVQLVQSGAEVKKPGASVKVSCKASGFTFSDYTMAWVRQAPGQGLEWVATIIYSGRGTYYRDAVKGRFTITRDNSTSTLYLELSSLRSEDTAVYYCARQSDDTYYYWGYFDYWGQGTMVTVSS VL: DIVMTQTPLSLPVTPGEPASINCKSSQSLLFSGNQKNYLAWYLQKPGQSPQLLIYWASTRQSGVPDRFSGSGSGTDFTLKISRVEAEDVGIYYCQQYYDVPYTFGQGTKLEIKR"
readout = "Molt4 IC50"
value_reported = 0.068


Ask: Item under review: CD98 (CL-huAb110)-CZ (antibody, human IgG1, kappa, L234A L235A, V domains shown, synthon CZ on reduced interchain cysteines (sites not given)) VH: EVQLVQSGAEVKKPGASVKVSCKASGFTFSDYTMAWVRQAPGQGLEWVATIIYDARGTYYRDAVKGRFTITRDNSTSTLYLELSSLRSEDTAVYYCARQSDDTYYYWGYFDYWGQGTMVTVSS VL: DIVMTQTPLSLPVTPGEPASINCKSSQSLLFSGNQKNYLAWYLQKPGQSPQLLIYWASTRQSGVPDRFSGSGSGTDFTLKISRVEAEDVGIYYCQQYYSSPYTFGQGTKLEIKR . Reported Molt4 IC50?
Result: 0.064
